# MEASURED_TARGET: human M1 receptor (hCHRM1) (Homo sapiens, UniProt P11229)
# Sequence (P11229 1-460): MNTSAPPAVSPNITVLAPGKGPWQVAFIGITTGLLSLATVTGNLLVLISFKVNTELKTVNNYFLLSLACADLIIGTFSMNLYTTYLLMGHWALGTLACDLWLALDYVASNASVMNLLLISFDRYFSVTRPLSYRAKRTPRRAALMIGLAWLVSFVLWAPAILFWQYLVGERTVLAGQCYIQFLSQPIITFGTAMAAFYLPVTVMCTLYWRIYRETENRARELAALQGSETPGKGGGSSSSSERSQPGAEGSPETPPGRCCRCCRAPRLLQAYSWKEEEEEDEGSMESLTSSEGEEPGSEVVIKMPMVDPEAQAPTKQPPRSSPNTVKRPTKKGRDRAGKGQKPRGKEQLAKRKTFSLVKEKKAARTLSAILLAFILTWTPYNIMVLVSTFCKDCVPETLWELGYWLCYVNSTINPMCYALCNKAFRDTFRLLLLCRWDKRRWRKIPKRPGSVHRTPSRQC
# ASSAY_METHOD_TEXT: Measurement of M1 receptor positive allosteric modulator (M1PAM) activity, calcium fluorescence (FLIPRtetra) in CHO-K1 cells in the presence of acetylcholine at EC20
# STATED_CONDITIONS: inflection point of M1PAM activity, in the presence of acetylcholine at EC20 (final 0.6 nM), CHO-K1 cells expressing hCHRM1; read-out: IP value

| MOLECULE | ENDPOINT_UNIT | EC50 |
| --- | --- | --- |
| Cc1cc(-c2ccc(CN3Cc4ccnc(OCC5CCCO5)c4C3=O)cc2)cnn1 (centres unmarked) | nM | 23 |
| C=C(C)c1ccc(Oc2nccc3c2C(=O)N(Cc2ccc(-c4cnnc(C)c4)cc2)C3)c(F)c1 | nM | 61 |
| Cn1cc(-c2ccc(CN3Cc4ccnc(Oc5ccc(C(O)C(F)(F)F)cc5F)c4C3=O)cc2)cn1 (centres unmarked) | nM | 5 |
| Cn1ccc(-c2ccc(CN3Cc4ccnc(OCC5CCCCO5)c4C3=O)cc2)n1 (centres unmarked) | nM | 22 |
| Cn1ccc(-c2ccc(CN3Cc4ccnc(OCc5ccccc5F)c4C3=O)c(F)c2)n1 | nM | 73 |
| Cc1cc(C)c(Oc2nccc3c2C(=O)N(Cc2ccc(-c4cnn(C)c4)cc2)C3)c(F)c1 | nM | 16 |
| Cn1cc(-c2ccc(CN3Cc4cccc(OCCn5cccn5)c4C3=O)cc2)cn1 | nM | 110 |
| O=C1c2c(cccc2O[C@H]2CCCC[C@@H]2O)CN1Cc1ccc(-n2cccn2)cc1 (relative stereo) | nM | 7.5 |
| Cl.N#Cc1cccc(F)c1Oc1cccc2c1C(=O)N(Cc1ccc(-c3ccn[nH]3)cc1)C2 [Example 42, hydrochloride] | nM | 85 |
| Cc1cc(F)c(Oc2nccc3c2C(=O)N(Cc2ccc(-n4cnc(C)c4)cc2)C3)c(F)c1 | nM | 14 |
| Cc1cc(-c2ccc(CN3Cc4ccnc(Oc5ccc(C(F)F)cc5F)c4C3=O)cc2)ccn1 | nM | 14 |
